FYI, the data here is from patent US9315475B2.

Would you kindly list IC50 for each of these compounds?
# target.or.test.system: wildtype HIV-1 protease (Human immunodeficiency virus type 1 group M subtype B, UniProt P04585)
# Construct: the wildtype HIV-1 protease (which was expressed in Escherichia coli); made in house; host or cells: Escherichia coli
# test.method.notes: Assay for inhibition of microbial expressed HIV protease (Pepcleav)
# Assay type: biochemical
# stated.conditions: wild type HIV-1 protease expressed in E. coli, peptide substrate, pH 5.5; mean of at least two independent experiments; read-out: Pepcleav
Quick note: give the figure in nM, leave out the unit.

Sample N[C@@H](Cc1cccc2ccccc12)C(=O)Nc1cncc(F)c1CC[C@@H]1CN[C@H](COC(=O)NCc2ccc(F)cc2)CO1 [Example 191] ; IC50 observed: 130

The compound N[C@H](C(=O)Nc1cc(F)cc(F)c1CC[C@@H]1CN[C@H](COC(=O)NCC(F)(F)F)CO1)C(c1ccc(F)cc1)c1ccc(F)cc1 [Example 247] showed IC50 equal to 12

For this compound ( N[C@H](C(=O)Nc1ccc(F)cc1CC[C@@H]1CN[C@H](COC(=O)NCC(F)(F)F)CO1)C(c1ccccc1)c1ccccc1 [Example 196] ), measured IC50 is 79

// recorded IC50 for COC(=O)N[C@H](C(=O)Nc1cncc(F)c1CC[C@@H]1CN[C@H](COC(=O)NCC(F)(F)F)CO1)[C@H](c1ccc(F)cc1)c1cccc(F)c1 [Example 282] : 3.7

IC50 recorded for this compound, COC(=O)N[C@H](C(=O)Nc1ccccc1CC[C@@H]1CN[C@H](CCc2ccccc2NS(=O)(=O)Cc2ccccc2)CO1)C(c1ccccc1)c1ccccc1 [Example 73] , is 21

Item: N[C@@H](Cc1ccccc1Cl)C(=O)Nc1cccc(F)c1CC[C@@H]1CN[C@H](COC(=O)NCc2ccc(F)cc2)CO1 [Example 204] | IC50: 26

Input N[C@H](C(=O)Nc1c(Cl)cccc1OC[C@@H]1CN[C@H](COC(=O)NCC(F)(F)F)CO1)C(c1ccc(F)cc1)c1ccc(F)cc1 [Example 260] . Output IC50: 4.8

Value of IC50 reported for the compound O=C(CC(c1ccc(F)cc1)c1ccc(F)cc1)Nc1cncc(F)c1CC[C@@H]1CN[C@H](COC(=O)NC(CO)C(F)(F)F)CO1 (stereo partly drawn) [Example 167] is 1.5

Measured IC50 of CN1CCC(NC(=O)OC[C@@H]2CO[C@H](CCc3c(F)cncc3NC(=O)[C@@H](N)C(c3ccc(F)cc3)c3ccc(F)cc3)CN2)C1 (stereo partly drawn) [Example 229] : 190

Item: COC(=O)N[C@H](C(=O)Nc1cnccc1CC[C@@H]1CN[C@H](COC(=O)NCc2ccc(F)cc2)CO1)C(c1ccccc1)c1ccccc1 [Example 33] | IC50: 5.7

IC50 reported for this compound COC(=O)N[C@H](C(=O)Nc1ccccc1CC[C@@H]1CN[C@H](CCc2ccccc2N)CO1)C(c1ccccc1)c1ccccc1 [Example 72] : 14

What the record says about COC(=O)N[C@H](C(=O)Nc1cncc(F)c1CC[C@@H]1CNC(COC(=O)NCC(F)(F)F)CO1)[C@@H](c1ccc(F)cc1)c1cc(F)cc(F)c1 (stereo in doubt) [Example 91] : IC50 is 3

Note to self: IC50 recorded for CCNC(=O)OC[C@@H]1CO[C@H](CCc2c(F)cncc2NC(=O)[C@@H](N)C(c2ccc(F)cc2)c2ccc(F)cc2)CN1 [Example 207] was 20

Reported IC50 of COC(=O)N[C@H](C(=O)Nc1ccccc1CC[C@@H]1CN[C@H](CO)CO1)C(c1ccccc1)c1ccccc1 [Example 61] : 160

IC50 measured on CS(=O)(=O)c1cccc([C@@H](CC(=O)Nc2cccc(F)c2CC[C@@H]2CN[C@H](COC(=O)NCC(F)(F)F)CO2)c2ccc(Cl)cc2)c1 [Example 164] = 3.4

Lab note: measured IC50 of N[C@H](C(=O)Nc1cccc(F)c1CC[C@@H]1CN[C@H](COC(=O)NCc2ccncc2)CO1)C(c1ccc(F)cc1)c1ccc(F)cc1 [Example 198] was 44

Form field IC50, entry COC(=O)N[C@H](C(=O)Nc1ccccc1CC[C@@H]1CN[C@H](CNC(=O)c2cc3ccccc3[nH]2)CO1)C(c1ccccc1)c1ccccc1 [Example 56] : 34

IC50 reading for COC(=O)N[C@H](C(=O)Nc1ccccc1CC[C@@H]1CN[C@H](CCCc2ccccc2)CO1)C(c1ccccc1)c1ccccc1 [Example 67] : 26

Given item N[C@H](C(=O)Nc1cncc(F)c1CC[C@@H]1CN[C@H](C(=O)Nc2ccccc2O)CO1)C(c1ccc(F)cc1)c1ccc(F)cc1 [Example 271] , the value recorded as its IC50 is 2

The reported value for N[C@H](C(=O)Nc1cncc(F)c1CC[C@@H]1CN[C@H](COC(=O)NCC(F)(F)F)CO1)[C@@H](c1ccc(F)cc1)c1cc(F)ccc1F [Example 268] in terms of IC50 is 2.8

What the record says about N[C@H](C(=O)Nc1cncc(F)c1CC[C@@H]1CN[C@H](COC(=O)NCC2CCS(=O)(=O)C2)CO1)C(c1ccc(F)cc1)c1ccc(F)cc1 (stereo partly drawn) [Example 209] : IC50 is 16

Sure, the documented IC50 for COC(=O)N[C@H](C(=O)Nc1ccccc1CC[C@@H]1CN[C@H](CCc2ccccc2NC(=O)NCc2ccccc2)CO1)C(c1ccccc1)c1ccccc1 [Example 75] is 4.1

Reported IC50 ( O=C(C[C@@H](c1ccc(F)cc1)c1cc(F)cc(F)c1)Nc1cncc(F)c1CC[C@@H]1CNC(COC(=O)NCC(F)(F)F)CO1 (stereo in doubt) [Example 89] ) = 1.4

Per the records, this compound ( COC(=O)N[C@H](C(=O)Nc1c(CC[C@@H]2CN[C@H](COC(=O)NCC(F)(F)F)CO2)cc[nH]c1=O)C(c1ccccc1)c1ccccc1 [Example 39] ) has IC50 equal to 2.3

====

# target.or.test.system: wildtype HIV-1 protease (Human immunodeficiency virus type 1 group M subtype B)
# Construct: the wildtype HIV-1 protease (which was expressed in Escherichia coli); made in house; host or cells: Escherichia coli
# test.method.notes: Assay for inhibition of microbial expressed HIV protease (Pepcleav)
# Assay type: biochemical
# stated.conditions: wild type HIV-1 protease expressed in E. coli, peptide substrate, pH 5.5; mean of at least two independent experiments; read-out: Pepcleav
Threshold check on IC50: strictly below 20 nM is condition met; on or above 20 nM is condition not met.

Query :: Criterion: IC50 strictly below 20 nM. Is it met by COC(=O)N[C@H](C(=O)Nc1ncccc1CC[C@@H]1CN[C@H](COC(=O)NCc2ccc(F)cc2)CO1)C(c1ccccc1)c1ccccc1 ?
Result :: condition not met

Query :: In the record for COC(=O)N[C@H](C(=O)Nc1ccccc1CC[C@@H]1CN[C@H](CNC(=O)c2ccccc2)CO1)C(c1ccccc1)c1ccccc1 , is IC50 less than 20 nM?
Result :: condition not met

Query :: I wonder whether COC(=O)N[C@H](C(=O)Nc1ccccc1CC[C@@H]1CN[C@H](COC(=O)NC2CCc3ccccc32)CO1)C(c1ccccc1)c1ccccc1 (stereo partly drawn) has IC50 below 20 nM. Can you tell?
Result :: condition met

Query :: Quick check: IC50 of COC(=O)N[C@H](C(=O)Nc1ccccc1CC[C@@H]1CN[C@H](Cn2ccnn2)CO1)C(c1ccccc1)c1ccccc1 under 20 nM?
Result :: condition not met

Query :: IC50 under 20 nM? Item: COC(=O)N[C@H](C(=O)Nc1cccc(F)c1CC[C@@H]1CN[C@H](COC(=O)NCC(C)(C)O)CO1)C(c1ccc(F)cc1)c1ccc(F)cc1
Result :: condition met

Query :: IC50 under 20 nM? Item: N[C@H](C(=O)Nc1cncc(F)c1CC[C@@H]1CN[C@H](COC(=O)NC(CC(F)(F)F)c2ccc(F)cc2)CO1)C(c1ccc(F)cc1)c1ccc(F)cc1 (stereo partly drawn)
Result :: condition met

====

Please respond with reported IC50 for every item in the list.
# target.or.test.system: wildtype HIV-1 protease (Human immunodeficiency virus type 1 group M subtype B, UniProt P04585)
# Construct: the wildtype HIV-1 protease (which was expressed in Escherichia coli); made in house; host or cells: Escherichia coli
# test.method.notes: Assay for inhibition of microbial expressed HIV protease (Pepcleav)
# Type: biochemical
# stated.conditions: wild type HIV-1 protease expressed in E. coli, peptide substrate, pH 5.5; mean of at least two independent experiments; read-out: Pepcleav
# Description: Assay for Inhibition of Microbial Expressed HIV Protease (“Pepcleav”) Studies of the inhibition of the wildtype HIV-1 protease (which was expressed in Escherichia coli) were carried out with a peptide substrate [Val-Ser-Gln-Asn-(βnaphthyl)Ala-Pro-Ile-Val (SEQ ID NO:1)]. […] The extent of inhibition of the reaction is determined from the peak area of the products.
Give the value, in units of nM, as a plain number.

Value of IC50 reported for the molecule COC(=O)N[C@H](C(=O)Nc1cncc(F)c1CC[C@@H]1CN[C@H](COC(=O)NCC(F)(F)F)CO1)[C@H](c1ccc(F)cc1)c1ccc(Br)cc1 [Example 298] is 0.3

Looking up COC(=O)N[C@H](C(=O)Nc1cccc(F)c1CC[C@@H]1CN[C@H](COC(=O)NCC(F)(F)F)CO1)[C@H](c1ccc(F)cc1)c1ccc(F)c(F)c1 [Example 295] , I found its IC50 recorded as 2.5

Lab note: measured IC50 of N[C@H](C(=O)Nc1cccc(F)c1OC[C@@H]1CN[C@H](COC(=O)NCC(F)(F)F)CO1)C(c1ccc(F)cc1)c1ccc(F)cc1 [Example 82] was 11

So, COC(=O)N[C@H](C(=O)Nc1cnccc1CC[C@@H]1CN[C@H](COC(=O)NCC(F)(F)F)CO1)C(c1ccccc1)c1ccccc1 [Example 34] ? Its IC50 was 14

So for O=C(CC(c1ccccc1)c1ccccc1)Nc1cncc(F)c1CC[C@@H]1CN[C@H](COC(=O)NCC(F)(F)F)CO1 [Example 146] , the logged IC50 turned out to be 13

Looking up COC(=O)N[C@H](C(=O)Nc1ccccc1CC[C@@H]1CN[C@H](COc2ccccc2)CO1)C(c1ccccc1)c1ccccc1 [Example 63] , I found its IC50 recorded as 49

For reference, reported IC50 for COC(=O)N[C@H](C(=O)Nc1ccccc1CC[C@@H]1CN[C@H](CNC(=O)Nc2cc[nH]n2)CO1)C(c1ccccc1)c1ccccc1 [Example 43] stands at 96

Recorded IC50 (molecule O=C(C[C@H](CC1CC1)c1ccccc1)Nc1cccc(F)c1CC[C@@H]1CN[C@H](COC(=O)NCC(F)(F)F)CO1 [Example 163] ): 1100

Item: CNC(=O)OC[C@@H]1CO[C@H](CCc2c(F)cncc2NC(=O)[C@@H](N)C(c2ccc(F)cc2)c2ccc(F)cc2)CN1 [Example 205] | IC50: 24

For reference, reported IC50 for N[C@H](C(=O)Nc1cncc(F)c1CC[C@@H]1CN[C@H](COC(=O)NCC(F)(F)F)CO1)[C@@H](c1ccc(F)cc1)c1ccc(F)c(F)c1 [Example 265] stands at 3.1

For this molecule ( COC(=O)N[C@H](C(=O)Nc1ccccc1CC[C@@H]1CN[C@H](COC(=O)NC2CCC2)CO1)C(c1ccccc1)c1ccccc1 [Example 23] ), measured IC50 is 80

COC(=O)N[C@H](C(=O)Nc1ccccc1CC[C@@H]1CN[C@H](CNS(=O)(=O)c2ccc(N)cc2)CO1)C(c1ccccc1)c1ccccc1 [Example 49] yielded IC50 of 94

Briefly, IC50 measured for COC(=O)N[C@H](C(=O)Nc1cccc(F)c1CC[C@@H]1CN[C@H](COC(=O)NCC(F)(F)F)CO1)[C@@H](c1ccc(F)cc1)c1cc(F)cc(F)c1 [Example 292] : 3.6

Lookup result for COC(=O)N[C@H](C(=O)Nc1ccccc1CC[C@@H]1CN[C@H](CNC(=O)Cc2ccccc2)CO1)C(c1ccccc1)c1ccccc1 [Example 53] ; measured IC50: 12

Measured IC50 of CC(C)OC(=O)N[C@H](C(=O)Nc1cncc(F)c1CC[C@@H]1CN[C@H](COC(=O)NCC(F)(F)F)CO1)C(c1ccc(F)cc1)c1ccc(F)cc1 [Example 277] : 3.2

IC50 measured on N[C@H](C(=O)Nc1cncc(F)c1CC[C@@H]1CN[C@H](COC(=O)N2CCOCC2)CO1)C(c1ccc(F)cc1)c1ccc(F)cc1 [Example 197] = 68

// IC50 lookup, molecule = N[C@H](C(=O)Nc1cncc(F)c1CC[C@@H]1CN[C@H](COC(=O)NCC(F)(F)F)CO1)[C@H](c1ccc(F)cc1)c1ccc(OC(F)(F)F)cc1 [Example 246] , result: 13

The molecule listed as COC(=O)N[C@H](C(=O)Nc1cccc(F)c1CC[C@@H]1CN[C@H](COC(=O)NCC(F)(F)F)CO1)[C@H](c1ccc(F)cc1)c1cccc(OC)c1 [Example 306] shows IC50 equal to 170

Record COC(=O)N[C@H](C(=O)Nc1cccc(F)c1CC[C@@H]1CN[C@H](COC(=O)NCC(F)(F)F)CO1)[C@H](c1ccccc1)c1ccc2ccccc2c1 [Example 290] , field IC50: 30

Recorded result, N[C@H](C(=O)Nc1cncc(F)c1CC[C@@H]1CN[C@H](COC(=O)NCC(F)(F)F)CO1)[C@H](c1ccc(F)cc1)c1cccc(F)c1 (stereo in doubt) [Example 92] , IC50: 4.4

Briefly, IC50 measured for N[C@H](C(=O)Nc1cncc(F)c1CC[C@@H]1CN[C@H](COC(=O)NCc2ccno2)CO1)C(c1ccc(F)cc1)c1ccc(F)cc1 [Example 255] : 6.4

According to the records, this molecule COC(=O)N[C@H](C(=O)Nc1ccccc1CC[C@@H]1CO[C@H](CCc2ccccc2NC(=O)[C@@H](NC(=O)OC)C(c2ccccc2)c2ccccc2)CN1)C(c1ccccc1)c1ccccc1 [Example 68] displays IC50 of 0.03

The reported IC50 of the molecule COC(=O)N[C@H](C(=O)Nc1ccccc1CC[C@@H]1CN[C@H](COC(=O)N(C)C)CO1)C(c1ccccc1)c1ccccc1 [Example 26] was 210

Input COC(=O)N[C@H](C(=O)Nc1ccccc1CC[C@@H]1CN[C@H](CCc2ccccc2NC(=O)OCc2ccccc2)CO1)C(c1ccccc1)c1ccccc1 [Example 74] . Output IC50: 10
